# ASSAY METHOD TEXT: Volume of distribution in rat administered with 0.5 mg/kg, iv
# Format: ADME, organism-based
# Parameters: dose 0.5 mg/kg, route intravenous
# TEST PARAMETERS: in vivo, read-out: Vss
MEASUREMENT TYPE: Vd (L/kg)

COMPOUND: N#CCNC(=O)C1(NC(=O)c2ccc(-c3ccc(N4CCNCC4)cc3)cc2)CCCCC1
MEASUREMENT TYPE: Vd
NUMERIC READOUT: 7.23

[1] COCCN1CCC(Oc2ccc(-c3ccc(C(=O)NC4(C(=O)NCC#N)CCCCC4)cc3)cc2)CC1
[2] CC(C)(C)N1CCN(c2ccc(-c3ccc(C(=O)NC4(C(=O)NCC#N)CCCCC4)cc3)cc2)CC1
[3] N#CCNC(=O)C1(NC(=O)c2ccc(-c3ccc(S(=O)(=O)N4CCN(CC(F)(F)F)CC4)cc3)cc2)CCCCC1
Prompt: List the 3 entries from lowest Vd to highest Vd value. Answer with the labels in sequence, matching the requested order.
Completion: 3, 1, 2
(3: 1.55 L/kg, 1: 3.27 L/kg, 2: 11.2 L/kg)

[1] N#CCNC(=O)C1(NC(=O)c2ccc(-c3ccc(S(=O)(=O)N4CCNCC4)cc3)cc2)CCCCC1
[2] CC(C)(C)NC1CCN(c2ccc(-c3ccc(C(=O)NC4(C(=O)NCC#N)CCCCC4)cc3)cc2)CC1
[3] N#CCNC(=O)C1(NC(=O)c2ccc(-c3ccc(OC4CCN(CCO)CC4)cc3)cc2)CCCCC1
Prompt: Kindly order the items shown according to Vd, from the highest value down. Output the labels ranked as instructed.
Completion: 3, 2, 1
(3: 25.3 L/kg, 2: 10.7 L/kg, 1: 3.29 L/kg)

[P] N#CCNC(=O)C1(NC(=O)c2ccc(-c3ccc(C4(F)CCNCC4)cc3)cc2)CCCCC1
[Q] CN1CCCC(Oc2ccc(-c3ccc(C(=O)NC4(C(=O)NCC#N)CCCCC4)cc3)cc2)C1 (stereo not given)
Prompt: Of P and Q , whose reported Vd is the larger number? Mark your answer with the label of the selected entry.
Completion: Q
